experiment: self-splicing fitness, log relative to wild type (ln ratio); higher = more splicing; Tetrahymena group I intron in knt gene, E. coli kanamycin selection, DiMSum; sequences stand for … in CUCUCU…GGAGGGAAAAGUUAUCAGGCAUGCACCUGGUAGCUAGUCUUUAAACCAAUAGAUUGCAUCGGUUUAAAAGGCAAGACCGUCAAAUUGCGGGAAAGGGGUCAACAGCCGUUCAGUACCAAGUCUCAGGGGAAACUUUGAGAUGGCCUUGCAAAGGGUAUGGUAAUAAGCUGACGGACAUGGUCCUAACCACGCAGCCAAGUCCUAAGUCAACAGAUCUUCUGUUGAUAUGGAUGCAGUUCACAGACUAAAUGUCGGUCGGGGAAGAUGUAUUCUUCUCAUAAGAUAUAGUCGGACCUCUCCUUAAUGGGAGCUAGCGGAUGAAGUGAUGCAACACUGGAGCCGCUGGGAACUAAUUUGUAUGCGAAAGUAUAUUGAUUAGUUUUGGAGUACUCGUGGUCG; conditions: 30 °C;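 note: selection with 25 µg/mL kanamycin versus none on LB agar overnight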
measured_parameter: self-splicing fitness (ln)
API note: the answer field is a bare number with no unit suffix.

Which self-splicing fitness (ln) is reported for this sequence? CAAGAGCAAUAUUACGCGAA
-3.05

Would you kindly share the measured self-splicing fitness (ln) for ACUCAGCAAUAUUACGCCAC ?
-2.88

# lookup: self-splicing fitness (ln) of AGAAAGCAAUAUUACGGCAU
-0.587

Consider the sequence shown here: CAUUAGCAAUAUUACGUUGC What is its recorded self-splicing fitness (ln)?
-3.96

Given the sequence CGGCAGCAAUAUUACGUACA , what is its reported self-splicing fitness (ln)?
-1.26

What self-splicing fitness (ln) value was documented for this sequence, UUCAAGCAAUAUUACGAAUC ?
-4.05

Recorded self-splicing fitness (ln) for UGCAAGCAAUAUUACGAAAA , please?
-2.32

Please give the measured self-splicing fitness (ln) for this sequence: UGCAAGCAAUAUUACGCCUA
0.231

Name the reported self-splicing fitness (ln) value associated with the sequence CCCUAGCAAUAUUACGAAAA
-2.83

# query: self-splicing fitness (ln) of entry CUUGAGCAAUAUUACGUCUA
-2.76

Endpoint output: self-splicing fitness (ln) of UUCGAGCAAUAUUACGUCAG . Value?
-3.92

Reported self-splicing fitness (ln) for AAUGAGCAAUAUUACGGUCG : what is it?
-2.26

# self-splicing fitness (ln) lookup, item ACAUAGCAAUAUUACGAUAC
-3.6

----------
experiment: self-splicing fitness, log relative to wild type (ln ratio); higher = more splicing; Tetrahymena group I intron in knt gene, E. coli kanamycin selection, DiMSum; sequences stand for … in CUCUCU…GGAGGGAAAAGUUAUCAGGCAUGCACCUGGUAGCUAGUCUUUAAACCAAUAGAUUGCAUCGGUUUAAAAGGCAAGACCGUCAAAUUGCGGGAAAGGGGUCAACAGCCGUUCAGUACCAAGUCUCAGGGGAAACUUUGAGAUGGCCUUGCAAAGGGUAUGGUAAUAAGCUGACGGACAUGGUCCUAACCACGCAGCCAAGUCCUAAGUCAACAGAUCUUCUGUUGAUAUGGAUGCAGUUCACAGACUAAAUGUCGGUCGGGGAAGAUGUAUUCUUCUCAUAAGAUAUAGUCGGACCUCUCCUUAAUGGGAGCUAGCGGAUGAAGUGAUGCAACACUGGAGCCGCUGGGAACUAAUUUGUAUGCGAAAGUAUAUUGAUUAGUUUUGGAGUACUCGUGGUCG; settings: 37 °C
measured_parameter: self-splicing fitness (ln)
Give a plain numeric answer without units written out.

Look up self-splicing fitness (ln): AUAAAGCAAUAUUACGACGC
0.349

Look up self-splicing fitness (ln): AGCAAGCAAUAUUACGUAGU
-2.14

# query: self-splicing fitness (ln) of entry GGCCAGCAAUAUUACGCAUG
-1.3

Entry CUAAAGCAAUAUUACGACCA : reported self-splicing fitness (ln) = ?
0.487

// query self-splicing fitness (ln) value for entry AAUGAGCAAUAUUACGCGGG
-2.57

# get_value(readout='self-splicing fitness (ln)', item= UGAUAGCAAUAUUACGCCGA )
-1.28

Which measured self-splicing fitness (ln) value corresponds to UUAAAGCAAUAUUACGAUUU ?
0.0458

Name the recorded self-splicing fitness (ln) for UUUUAGCAAUAUUACGAUAA .
0.144

Field request: self-splicing fitness (ln) | item: UCGUAGCAAUAUUACGCUCA
-0.556

Look up self-splicing fitness (ln): UCCGAGCAAUAUUACGGGUA
-0.229

Fill in the blank: the reported self-splicing fitness (ln) of UCCUAGCAAUAUUACGAUUG is ____.
-2.49

What measured self-splicing fitness (ln) goes with UGUGAGCAAUAUUACGGAAC ?
-1.72

Could you share which self-splicing fitness (ln) value was measured for GGGAAGCAAUAUUACGCCCA ?
-0.717
